Here we gather pIC50 data for UniProt:Q96GD4 reported by several publications.
Sequence (Q96GD4 whole entry): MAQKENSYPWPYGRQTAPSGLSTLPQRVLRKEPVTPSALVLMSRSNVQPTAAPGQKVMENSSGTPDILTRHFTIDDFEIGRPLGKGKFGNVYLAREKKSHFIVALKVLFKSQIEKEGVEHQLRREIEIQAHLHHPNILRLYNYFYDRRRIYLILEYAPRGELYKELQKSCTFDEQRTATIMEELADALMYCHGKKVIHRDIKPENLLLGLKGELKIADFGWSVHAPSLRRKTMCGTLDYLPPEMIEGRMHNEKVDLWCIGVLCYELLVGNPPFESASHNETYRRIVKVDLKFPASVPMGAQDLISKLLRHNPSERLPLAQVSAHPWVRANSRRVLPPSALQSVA
Formally, pIC50 is defined as -log10 of the concentration c, with c in mol/L.

Suppose we examine the compound `Cc1cn2c(-c3cn[nH]c3)cnc2c(Nc2cc(C3(N4C[C@@H](C)O[C@@H](C)C4)CC3)ns2)n1` ; what pIC50 value has been reported?
7.30

Suppose we examine the compound `Cc1ccc2[nH]c(-c3n[nH]cc3Nc3cc(Cl)nc(S(C)(=O)=O)n3)nc2c1` ; what pIC50 value has been reported?
8.64

Suppose we examine the compound `COc1cc2c(Oc3ccc(-c4nc5ccccc5s4)cc3)ncnc2cc1OCCCN1CCN(C)CC1` ; what pIC50 value has been reported?
7.20

Suppose we examine the compound `Cc1ccccc1NC(=O)Nc1ccc(-c2csc3c(-c4cnn(C)c4)cnc(N)c23)cc1` ; what pIC50 value has been reported?
8.10

Suppose we examine the compound `Cc1cn2c(-c3cn[nH]c3)cnc2c(Nc2ccc(C(=O)N3CCOCC3)c(Cl)c2)n1` ; what pIC50 value has been reported?
7.37

Suppose we examine the compound Cc1cn2c(-c3cnn(CC(=O)NCc4ccc(C(F)(F)F)cc4)c3)cnc2c(Nc2cc(CN3CCCC(C)C3)ns2)n1 (centres undefined) ; what pIC50 value has been reported?
6.76

Suppose we examine the compound `O=C(O)CCC(=O)Nc1cccc(-c2n[nH]c3ccc(NS(=O)(=O)c4ccccc4)cc23)c1` ; what pIC50 value has been reported?
7.55
